Numbers sourced from patent US10093683B2.

Field: pKi. Provide a value for each of the molecules that follow.
- Measured On: human Factor XIa (Homo sapiens (Human), UniProt P03951)
- Sequence (P03951 388-625): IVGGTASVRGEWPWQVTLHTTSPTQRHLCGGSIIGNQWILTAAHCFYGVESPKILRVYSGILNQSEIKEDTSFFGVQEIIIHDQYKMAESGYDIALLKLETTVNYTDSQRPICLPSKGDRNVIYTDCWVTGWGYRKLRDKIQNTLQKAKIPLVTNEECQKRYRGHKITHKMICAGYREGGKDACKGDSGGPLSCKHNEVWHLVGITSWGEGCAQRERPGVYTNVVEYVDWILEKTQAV
- Sequence (P03951 19-387 partner): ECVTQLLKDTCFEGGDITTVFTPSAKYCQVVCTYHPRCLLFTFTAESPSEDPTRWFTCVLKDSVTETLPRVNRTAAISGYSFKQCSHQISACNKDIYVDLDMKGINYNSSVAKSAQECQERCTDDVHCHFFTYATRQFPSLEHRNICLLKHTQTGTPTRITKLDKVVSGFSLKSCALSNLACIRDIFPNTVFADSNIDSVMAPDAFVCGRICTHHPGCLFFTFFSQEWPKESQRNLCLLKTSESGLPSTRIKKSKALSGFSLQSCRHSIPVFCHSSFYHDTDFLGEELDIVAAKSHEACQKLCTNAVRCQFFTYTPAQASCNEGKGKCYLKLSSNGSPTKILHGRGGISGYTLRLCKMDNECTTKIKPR
- Assay Summary: Factor XIa Assay
- Type: biochemical
- Recorded Conditions: read-out: FXIa Ki
Where a name gives a salt, the structure may show the parent alone.
Field pKi (float): negative decimal logarithm of the concentration in molar.

Entry Nc1n[nH]c2cc(C(=O)N[C@@H](CC(=O)N3CCC3)C(=O)N3CCC[C@@]4(C3)OC(=O)Nc3ccc(Cl)cc34)ccc12 [Example 266] — recorded pKi = 8.42

Entry O=C1CCc2cc(C(=O)N[C@@H](CC3CC3)C(=O)N3CCC[C@@]4(C3)OC(=O)Nc3ccc(Cl)c(F)c34)ccc2N1 [Example 251] — recorded pKi = 8.24

Entry CC(N[C@@H](Cc1ccccc1)C(=O)N1CC[C@@]2(C1)OC(=O)Nc1ccc(Cl)cc12)c1ccc2c(N)n[nH]c2c1 (stereo partly drawn) [Example 224, dihydrochloride] — recorded pKi = 5.06

Entry O=C1Nc2ccc(Cl)cc2C2(CCN(C(=O)[C@H](Cc3ccccc3)NC(=O)c3ccc(CO)nc3)C2)O1 (stereo partly drawn) [Example 158] — recorded pKi = 6.12

Entry O=C(Nc1ccc(C(=O)N[C@@H](Cc2ccc(F)cc2)C(=O)N2CCC[C@@]3(C2)OC(=O)Nc2ccc(Cl)c(F)c23)cc1)OCCc1nnn[nH]1 [Example 274] — recorded pKi = 8.49

Entry COC(=O)NC12CC(C(=O)N[C@@H](Cc3ccccc3)C(=O)N3CCC[C@@]4(C3)OC(=O)Nc3ccc(Cl)c(F)c34)(C1)C2 [Example 238] — recorded pKi = 6.98

----------
- Measured On: UniProt P03951
- Assay Summary: Factor XIa Assay
- Format: biochemical
- Recorded Conditions: purified human Factor XIa 40 pM, Z-Gly-Pro-Arg-AFC 100 μM, pH 7.4; read-out: FXIa Ki
Field: Ki. Provide a value for each of the molecules that follow.
# number only, unit nM dropped from output

Entry COC(=O)Nc1ccc(C(=O)N[C@@H](Cn2cccn2)C(=O)N2CCC3(C2)OC(=O)Nc2ccc(Cl)cc23)cc1 (stereo partly drawn) [Example 31] — recorded Ki = 26

Entry COC(=O)Nc1ccc(C(=O)N[C@@H](CC(=O)N2CC[C@@H](OC)C2)C(=O)N2CCC[C@@]3(C2)OC(=O)Nc2ccc(Cl)cc23)cc1 [Example 101] — recorded Ki = 36.4

----------
- Measured On: UniProt:P03951
- Assay Summary: Factor XIa Assay
- Assay type: biochemical
- Recorded Conditions: read-out: FXIa Ki
Counter-ions that a name gives are not always drawn.
Assay Readout: Ki
Lab note: write values as number then unit, every time.

Entry C[C@@H]1NC(=O)O[C@H]1c1cccc(C(=O)N[C@@H](Cc2ccccc2)C(=O)N2CCC3(C2)OC(=O)Nc2ccc(Cl)cc23)c1 (stereo partly drawn) — recorded Ki = 385 nM

Entry O=C(Nc1ccc(C(=O)N[C@@H](Cc2ccccc2)C(=O)N2CCC3(C2)OC(=O)Nc2ccc(Cl)cc23)cc1)OCCN1CCNCC1 (stereo partly drawn) [Example 190, trifluoroacetic acid salt] — recorded Ki = 76.7 nM

Entry O=C1Nc2ccc(Cl)c(F)c2[C@@]2(CCCN(C(=O)[C@H](Cc3cccc(F)c3)NC(=O)c3ccc(C(=O)NCCP(=O)(O)O)cc3)C2)O1 — recorded Ki = 367 nM
